Recorded measurements of pIC50, one per entry
target: T1, recombinant human PDGF-BB (human, UniProt P01127 82-190); test: competition ELISA: blocks biotin-hPDGF-BB binding to coated hPDGF-Rβ-Fc
T1 construct: Bought (CST cat#8912BF), biotinylated for the ELISAs; Dimer of two B chains; also called huPDGF-BB; hPDGF-BB
T1 sequence (P01127 82-190 limits assumed): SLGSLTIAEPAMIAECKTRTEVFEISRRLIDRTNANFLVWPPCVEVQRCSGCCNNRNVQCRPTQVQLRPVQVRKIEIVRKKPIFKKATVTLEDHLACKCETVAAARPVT
pIC50: −log10 of the molar value.
assay.readout: pIC50

[[record]]
binder = "BDI-1E1-D5 (antibody, IgG2b, V domains shown, Rat hybridoma monoclonal antibody) VH: EVKLQQSGDELVRPGASVKMSCKASGYTFTDYVMHWVKQSPGQGLEWIGTIIPLIDTTSYNQKFKGKATLTADKSSNTAYMELSRLTSEDSAVYYCARTSPYYYSSYDVMDAWGQGASVTVSS VL: NIQLTQSPSLLSASVGDRVTLSCKGSQNINNYLAWYQQKLGEAPKLLIYKTNNLQTGIPSRFSGCGSGTDYTLTISSLHSEDLATYYCYQYDNGYTFGAGTKLELK"
assay_readout = "pIC50"
measurement_qualifier = "<"
measured_number = 8.00

[[record]]
binder = "BDI-9E8-E7 (antibody, IgG2b, V domains shown, Rat hybridoma monoclonal antibody) VH: QVTLKESGPGILQPSQTLSLTCTFSGFSLSTYGMGVGWIRQPSGKGLEWLANIWWDDDKYYNPSLKNRLTISKDTSNNQAFLKITNVDTADTATYYCARIESIGTTYSFDYWGQGVMVTVSS VL: QFTLTQPKSVSGSLRSTITIPCERSSGDIGDSYVSWYQQHLGRPPINVIYADDQRPSEVSDRFSGSIDSSSNSASLTITNLQMDDEADYFCQSYDINIDIVFGGGTKLTVL"
assay_readout = "pIC50"
measurement_qualifier = "="
measured_number = 8.95

[[record]]
binder = "BDI-6A3-A9 (antibody, IgG2b, V domains shown, Rat hybridoma monoclonal antibody) VH: EVQLVESGGGLVQPGRSLKFSCAASGFSFSDSAMAWVRQAPKKGLEWVATIIYDGSGTYYRDSVKGRFTISRDNAKSTLYLQMDSLRSEDTATYYCARLGFNYGNYGYYVMDAWGQGASVTVSS VL: QFTLTQPKSVSGSLRNTITIPCERSSGDIGDSYVSWYQQHLGRPPINVIFADDQRPSEVSDRFSGSIDSSSNSASLTITNLQMDDEADYFCQSYDSNIDINIVFGGGTKLTVL"
assay_readout = "pIC50"
measurement_qualifier = "="
measured_number = 8.49

[[record]]
binder = "BDI-5H1-F6 (antibody, IgG2b, V domains shown, Rat hybridoma monoclonal antibody) VH: QVTLKESGPGILQPSQTLSLTCTFSGFSLSTFGMGVGWIRQPSGKGLEWLANIWWDDDKYYNPSLKNRLTISKDTSNSQAFLEITNVDTADTATYYCARISTGISSYYVMDAWGQGASVTVSS VL: QFTLTQPKSVSGSLRSTITIPCERSSGDIGDTYVSWYQQHLGRPPINVIYGNDQRPSEVSDRFSGSIDSSSNSASLTITNLQMDDEADYFCQSYDSDIDIVFGGGTKLTVL"
assay_readout = "pIC50"
measurement_qualifier = "="
measured_number = 9.28

[[record]]
binder = "BDI-5G2-F9 (antibody, IgG2b, V domains shown, Rat hybridoma monoclonal antibody) VH: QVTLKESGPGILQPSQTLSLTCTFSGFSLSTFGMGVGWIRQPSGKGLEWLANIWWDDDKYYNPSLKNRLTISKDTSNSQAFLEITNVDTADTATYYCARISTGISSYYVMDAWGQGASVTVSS VL: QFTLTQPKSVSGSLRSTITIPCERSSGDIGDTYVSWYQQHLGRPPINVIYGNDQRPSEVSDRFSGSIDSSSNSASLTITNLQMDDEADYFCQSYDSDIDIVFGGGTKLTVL"
assay_readout = "pIC50"
measurement_qualifier = "="
measured_number = 8.97

